Kindly state IC50 for each of the entries shown.
# Tested on: human TNF
# assayComment: TNF inhibition: human whole blood assay
# Assay type: cell-based
# appliedConditions: Homo sapiens, Table 8, human whole blood, LPS; read-out: TNF Inhibition-Human Whole Blood Assay
Counter-ions that a name gives are not always drawn.
Give bare numbers, in nM.

Guide cases for IC50, answers given:
- compound: "Clc1ccc(-c2[nH]nc(NC3CCNCC3)c2-c2ccncc2)cc1 [Example A-332, trihydrochloride, monohydrate]"
  systemUnderTest: "human TNF"
  IC50 [nM]: 450
- compound: "Fc1ccc(-c2[nH]nc(CN3CCNCC3)c2-c2ccncc2)cc1"
  systemUnderTest: "human TNF"
  IC50 [nM]: 470
- compound: "CN1CCN(c2n[nH]c(-c3ccc(F)cc3)c2-c2ccncc2)CC1 [Example A-317, dihydrate]"
  systemUnderTest: "human TNF"
  IC50 [nM]: 450
- compound: "Fc1ccc(-c2n[nH]c(CC3CCNCC3)c2-c2ccncc2)cc1"
  systemUnderTest: "human TNF"
  IC50 [nM]: 1750

## Task Field request: IC50 | item: CN1CCN(c2n[nH]c(-c3cccc(Cl)c3)c2-c2ccncc2)CC1
## Result 180

Source: patent US6525059B1
